# Tested on: Erythrocyte
# ASSAY REMARKS: Haemolytic activity in human erythrocytes assessed as lowest concentration causing 5% hemolysis after 1 hr
# Assay type: ADME, cell-based
Where a SMILES comes first, the peptide text is derived from it.

MOLECULE	MHC
CC[C@H](C)[C@H](NC(=O)[C@H](CCCCN)NC(=O)[C@H](Cc1c[nH]c2ccccc12)NC(=O)[C@H](CCCCN)NC(=O)[C@@H](NC(=O)[C@H](CCCCN)NC(=O)[C@H](Cc1c[nH]c2ccccc12)NC(=O)[C@H](CCCCN)NC(=O)[C@@H](NC(=O)[C@H](CCCCN)NC(=O)[C@@H](N)Cc1c[nH]c2ccccc12)[C@@H](C)CC)[C@@H](C)CC)C(=O)N[C@@H](CCCCN)C(N)=O (H-WKIKWKIKWKIK-NH2)	64 µM
CC(C)[C@H](NC(=O)[C@H](CCCCN)NC(=O)[C@H](Cc1c[nH]c2ccccc12)NC(=O)[C@H](CCCCN)NC(=O)[C@@H](NC(=O)[C@H](CCCCN)NC(=O)[C@H](Cc1c[nH]c2ccccc12)NC(=O)[C@H](CCCCN)NC(=O)[C@@H](NC(=O)[C@H](CCCCN)NC(=O)[C@@H](N)Cc1c[nH]c2ccccc12)C(C)C)C(C)C)C(=O)N[C@@H](CCCCN)C(N)=O (H-WKVKWKVKWKVK-NH2)	> 128 µM
CC(C)C[C@H](NC(=O)[C@H](CCCNC(=N)N)NC(=O)[C@H](CC(C)C)NC(=O)[C@H](CCCNC(=N)N)NC(=O)[C@@H](NC(=O)[C@H](CCCCN)NC(=O)[C@H](CC(C)C)NC(=O)[C@H](CCCNC(=N)N)NC(=O)[C@H](CC(C)C)NC(=O)[C@H](CCCNC(=N)N)NC(=O)[C@@H](N)CC(C)C)[C@@H](C)O)C(=O)N[C@@H](CCCCN)C(N)=O (H-LRLRLKTRLRLK-NH2)	> 128 µM

* * *

Recorded MIC for the following compounds
# System: Salmonella typhimurium
# ASSAY REMARKS: Antibacterial activity against Salmonella enterica serovar typhimurium C77-31 incubated for 18 to 24 hrs by broth microdilution method
# Assay type: functional, Salmonella enterica subsp. enterica serovar Typhimurium
Where a SMILES comes first, the peptide text is derived from it.

COMPOUND	MIC [µM]
CC(C)C[C@H](NC(=O)[C@H](CCCNC(=N)N)NC(=O)[C@H](Cc1c[nH]c2ccccc12)NC(=O)[C@H](CCCNC(=N)N)NC(=O)[C@H](CC(C)C)NC(=O)[C@H](CCCNC(=N)N)NC(=O)[C@H](Cc1c[nH]c2ccccc12)NC(=O)[C@H](CCCNC(=N)N)NC(=O)[C@H](CC(C)C)NC(=O)[C@H](CCCNC(=N)N)NC(=O)[C@@H](N)Cc1c[nH]c2ccccc12)C(=O)N[C@@H](CCCNC(=N)N)C(N)=O (H-WRLRWRLRWRLR-NH2)	2
CN(C)c1ccc(O)c2c1C[C@H]1C[C@H]3[C@H](N(C)C)C(O)=C(C(N)=O)C(=O)[C@@]3(O)C(O)=C1C2=O	8

* * *

Recorded MIC for the following molecules
# Test system: Escherichia coli
# ASSAY REMARKS: Antibacterial activity against Escherichia coli UB1005 incubated for 18 to 24 hrs by broth microdilution method
# Format: functional
Where a SMILES comes first, the peptide text is derived from it.
READOUT LABEL: MIC (µM)

MOLECULE	TARGET UNDER TEST	VALUE OBSERVED
CC(C)C[C@H](NC(=O)[C@H](CCCCN)NC(=O)[C@H](Cc1c[nH]c2ccccc12)NC(=O)[C@H](CCCCN)NC(=O)[C@H](CC(C)C)NC(=O)[C@H](CCCCN)NC(=O)[C@H](Cc1c[nH]c2ccccc12)NC(=O)[C@H](CCCCN)NC(=O)[C@H](CC(C)C)NC(=O)[C@H](CCCCN)NC(=O)[C@@H](N)Cc1c[nH]c2ccccc12)C(=O)N[C@@H](CCCCN)C(N)=O (H-WKLKWKLKWKLK-NH2)	Escherichia coli	4
CC(C)C[C@H](NC(=O)[C@H](CCCNC(=N)N)NC(=O)[C@H](CCCCN)NC(=O)[C@H](Cc1c[nH]c2ccccc12)NC(=O)[C@@H](NC(=O)[C@H](CCCCN)NC(=O)[C@H](CCCCN)NC(=O)[C@H](Cc1c[nH]c2ccccc12)NC(=O)[C@H](CC(C)C)NC(=O)[C@H](CCCNC(=N)N)NC(=O)[C@@H](N)CCCNC(=N)N)[C@@H](C)O)C(=O)N[C@@H](Cc1c[nH]c2ccccc12)C(N)=O (H-RRLWKKTWKRLW-NH2)	Escherichia coli	4
CC(C)C[C@H](NC(=O)[C@H](CCCNC(=N)N)NC(=O)[C@H](Cc1c[nH]c2ccccc12)NC(=O)[C@H](CCCNC(=N)N)NC(=O)[C@@H](NC(=O)[C@H](CCCCN)NC(=O)[C@H](Cc1c[nH]c2ccccc12)NC(=O)[C@H](CCCNC(=N)N)NC(=O)[C@H](CC(C)C)NC(=O)[C@H](CCCNC(=N)N)NC(=O)[C@@H](N)CCCNC(=N)N)[C@@H](C)O)C(=O)N[C@@H](CCCCN)C(N)=O (H-RRLRWKTRWRLK-NH2)	Escherichia coli	4
